System: ChaGo-K-1
Assay procedure: relative viability (nuclei count vs DMSO), 5 days (fraction); higher = more cells survive
Stated conditions: first compound 0.1 µM
Value type: relative viability
Give the figure by itself; no unit, no explanation.

Consider the worked cases shown below.
| Compound | relative viability |
| --- | --- |
| Cc1cn(-c2cc(NC(=O)c3ccc(C)c(Nc4nccc(-c5cccnc5)n4)c3)cc(C(F)(F)F)c2)cn1 [Nilotinib] + CC(=O)c1c(C)c2cnc(Nc3ccc(N4CCNCC4)cn3)nc2n(C2CCCC2)c1=O [Palbociclib] (partner 0.5 µM) | 0.894 |
| Cc1cn(-c2cc(NC(=O)c3ccc(C)c(Nc4nccc(-c5cccnc5)n4)c3)cc(C(F)(F)F)c2)cn1 [Nilotinib] + O=C(CCCCCCC(=O)Nc1ccccc1)NO [Vorinostat] (partner 1 µM) | 0.4 |

Now consider a different compound.
Input: Sample Cc1cn(-c2cc(NC(=O)c3ccc(C)c(Nc4nccc(-c5cccnc5)n4)c3)cc(C(F)(F)F)c2)cn1 [Nilotinib] + Cc1nc(Nc2ncc(C(=O)Nc3c(C)cccc3Cl)s2)cc(N2CCN(CCO)CC2)n1 [Dasatinib] (partner 0.075 µM) — what was its relative viability?
Output: 0.331
